Tested on: HL-60
Experiment: Induction of apoptosis in human HL60 cells after 48 hrs using propidium iodide by flow cytometry
Type: functional, cell-based
Details: HL-60, 48 h

| COMPOUND | MEASUREMENT_UNITS | EC50 |
| --- | --- | --- |
| COc1cc(C2C=C(c3cccs3)Nc3ncnn32)cc(OC)c1OC (centres undefined) | nM | 780 |
| COc1cc(C2C=C(c3ccccc3)Nc3ncnn32)cc(OC)c1OC (centres undefined) | nM | 220 |
| COc1ccc(C2=CC(c3cc(OC)c(OC)c(OC)c3)n3ncnc3N2)cc1 (centres undefined) | nM | 80 |
| COc1cc(C2C=C(c3ccc(C)cc3)Nc3ncnn32)cc(OC)c1OC (centres undefined) | nM | 70 |
